Values were extracted from patent US20250152591A1.

- System: MV4;11-PGP cell line
- TEST_NAME: CellTiter-Glo cell viability assay, MV4;11-PGP
- Format: cell-based
- Parameters: unit of the concentration uncertain
- MEASUREMENT_PARAMETERS: second set of experiments, valspodar (1 (unit uncertain)), Table 6; read-out: IC50 MV4;11-PGP (Compound + valspodar)
PROPERTY_NAME: IC50
The reply should read as a number followed by its unit.

Record for C=CC(=O)N[C@@H]1CCCN(Cc2ccnc(C(=O)Nc3ccc(-c4cc5c(N6CCOCC6)ncnc5[nH]4)cc3)c2)C1 [Compound C] under target or system MV4;11-PGP cell line: IC50 reported as 231 nM

Simply: CNc1nc(NC2CCN(Cc3ccc4c(cc(C#N)n4C[C@H](C)N4CCN(S(C)(=O)=O)CC4)c3C)CC2)c2cc(CC(F)(F)F)sc2n1 [Compound I] , MV4;11-PGP cell line, IC50 = 5.64 nM

Let me check: CCN(C(=O)c1cc(F)ccc1Oc1nncnc1N1CCC2(C1)CN([C@H](CCCN(C)CCOC)C(C)C)C2)C(C)C [Compound B] , system MV4;11-PGP cell line, measured IC50 is 3.15 nM

Form field IC50 for item COc1cc(-c2ccc(CN[C@H]3C[C@@H](O)[C@@H](N(C)c4ncnc5sc(CC(F)(F)F)cc45)C3)cc2)nnc1OC [Compound A] on MV4;11-PGP cell line: 2.41 nM

The value of IC50 recorded for CCN(C(=O)c1cc(F)ccc1Oc1cncnc1N1CC2(CCN(C[C@H]3CC[C@H](NS(=O)(=O)CC)CC3)CC2)C1)C(C)C [SNDX-5613] when tested on MV4;11-PGP cell line reads 8.15 nM

###

- System: OCI-AML3-PGP cell line
- TEST_NAME: Cell viability assay, OCI-AML3-PGP
- Format: cell-based
- MEASUREMENT_PARAMETERS: 168 h, 7 days, Table 10; read-out: IC50 OCI-AML3-PGP (Compound + DMSO)
PROPERTY_NAME: IC50 (nM)
State the answer as a number, implicitly in nM.

# IC50 (compound: CNc1nc(NC2CCN(Cc3ccc4c(cc(C#N)n4C[C@H](C)N4CCN(S(C)(=O)=O)CC4)c3C)CC2)c2cc(CC(F)(F)F)sc2n1 ) is 50.2

###

- TESTED_TARGET: P-gp (Homo sapiens)
- TEST_NAME: P-gp substrate assessment using MDR1-MDCK monolayers (Example 1, +/- valspodar)
- Assay type: in vitro ADME
- Set-up: expressed in transfected cells; host or cells: MDR1-MDCK cells
- MEASUREMENT_PARAMETERS: dog, MDCK-MDR1, pH 7.4, B-to-A, without valspodar; read-out: Papp R1
PROPERTY_NAME: Papp B→A at 120 min, 5 μM (×10⁻⁶ cm/s)
API: value field is a number in ×10⁻⁶ cm/s; no unit string.

Per the record, CNc1nc(NC2CCN(Cc3ccc4c(cc(C#N)n4C[C@H](C)N4CCN(S(C)(=O)=O)CC4)c3C)CC2)c2cc(CC(F)(F)F)sc2n1 has Papp B→A at 120 min, 5 μM of 6.43

###

- TESTED_TARGET: P-gp (Homo sapiens)
- TEST_NAME: P-gp substrate assessment using MDR1-MDCK monolayers (Example 1, +/- valspodar)
- Type: in vitro ADME
- Set-up: expressed in transfected cells; host or cells: MDR1-MDCK cells
- MEASUREMENT_PARAMETERS: dog, MDCK-MDR1, pH 7.4; A-to-B, without valspodar
PROPERTY_NAME: Papp A→B at 120 min, 5 μM (×10⁻⁶ cm/s)
Numbers only; they are read as ×10⁻⁶ cm/s.

The reported P-gp (Homo sapiens) Papp A→B at 120 min, 5 μM of CNc1nc(NC2CCN(Cc3ccc4c(cc(C#N)n4C[C@H](C)N4CCN(S(C)(=O)=O)CC4)c3C)CC2)c2cc(CC(F)(F)F)sc2n1 is 0.09

###

- Tested on: MOLM13-PGP cell line
- TEST_NAME: Cell viability assay, MOLM13-PGP
- Assay type: cell-based
- MEASUREMENT_PARAMETERS: 168 h; 7 days, Table 7; read-out: IC50 MOLM13-PGP (Compound + DMSO)
PROPERTY_NAME: pIC50
Friendly reminder that pIC50 comes from taking -log10 of the concentration in mol/L.

Record CNc1nc(NC2CCN(Cc3ccc4c(cc(C#N)n4C[C@H](C)N4CCN(S(C)(=O)=O)CC4)c3C)CC2)c2cc(CC(F)(F)F)sc2n1 has MOLM13-PGP cell line pIC50 equal to 7.18

###

- System: MV4;11-PGP cell line
- TEST_NAME: CellTiter-Glo cell viability assay, MV4;11-PGP
- Format: cell-based
- MEASUREMENT_PARAMETERS: 120 h, MV4;11-PGP, 5 days, Table 4; read-out: IC50 (Compound I + DMSO)
PROPERTY_NAME: IC50 (µM)
Give just the numeric value; µM need not be written.

Looking up CNc1nc(NC2CCN(Cc3ccc4c(cc(C#N)n4C[C@H](C)N4CCN(S(C)(=O)=O)CC4)c3C)CC2)c2cc(CC(F)(F)F)sc2n1 , I found its IC50 recorded as 0.033

###

- TESTED_TARGET: P-gp (Homo sapiens, UniProt P08183)
- Sequence (P08183 whole entry): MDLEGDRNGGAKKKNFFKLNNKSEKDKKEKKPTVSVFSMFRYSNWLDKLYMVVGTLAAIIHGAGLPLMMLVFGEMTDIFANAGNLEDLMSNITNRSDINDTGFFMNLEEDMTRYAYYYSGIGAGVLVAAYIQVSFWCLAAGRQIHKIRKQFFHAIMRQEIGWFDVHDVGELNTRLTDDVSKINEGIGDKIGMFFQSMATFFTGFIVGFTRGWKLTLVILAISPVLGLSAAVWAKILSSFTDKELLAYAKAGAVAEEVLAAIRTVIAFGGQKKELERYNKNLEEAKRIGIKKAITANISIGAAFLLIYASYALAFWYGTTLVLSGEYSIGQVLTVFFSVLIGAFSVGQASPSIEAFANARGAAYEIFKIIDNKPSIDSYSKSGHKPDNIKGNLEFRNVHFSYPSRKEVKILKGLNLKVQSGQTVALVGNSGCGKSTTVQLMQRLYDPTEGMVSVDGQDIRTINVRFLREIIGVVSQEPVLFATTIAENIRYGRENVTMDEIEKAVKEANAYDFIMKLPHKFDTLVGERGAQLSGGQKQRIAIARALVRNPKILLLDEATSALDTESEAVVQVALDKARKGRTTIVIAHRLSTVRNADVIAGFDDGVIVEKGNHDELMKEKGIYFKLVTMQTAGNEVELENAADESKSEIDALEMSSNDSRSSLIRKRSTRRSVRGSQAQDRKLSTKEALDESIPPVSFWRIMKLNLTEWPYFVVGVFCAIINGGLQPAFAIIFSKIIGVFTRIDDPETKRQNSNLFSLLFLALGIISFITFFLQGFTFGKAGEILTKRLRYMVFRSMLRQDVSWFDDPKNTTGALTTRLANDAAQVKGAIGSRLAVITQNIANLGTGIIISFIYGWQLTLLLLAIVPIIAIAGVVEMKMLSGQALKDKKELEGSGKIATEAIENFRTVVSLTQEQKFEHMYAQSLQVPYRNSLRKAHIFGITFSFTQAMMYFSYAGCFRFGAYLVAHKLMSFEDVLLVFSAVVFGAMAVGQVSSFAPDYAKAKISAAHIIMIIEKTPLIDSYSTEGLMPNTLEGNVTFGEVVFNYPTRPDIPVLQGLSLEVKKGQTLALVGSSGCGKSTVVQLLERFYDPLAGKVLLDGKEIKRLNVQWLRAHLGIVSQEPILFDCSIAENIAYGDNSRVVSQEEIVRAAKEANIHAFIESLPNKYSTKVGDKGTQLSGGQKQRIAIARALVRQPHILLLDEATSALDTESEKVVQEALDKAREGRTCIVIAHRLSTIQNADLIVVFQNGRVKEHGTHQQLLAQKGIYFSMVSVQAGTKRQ
- TEST_NAME: P-gp substrate assessment using MDR1-MDCK monolayers (Example 1, +/- valspodar)
- Format: in vitro ADME
- Design: expressed in transfected cells; host or cells: MDR1-MDCK cells
- MEASUREMENT_PARAMETERS: dog; 12-well plates, QC of MDR1-MDCK cell batch; read-out: Papp (cell batch quality control)
PROPERTY_NAME: Papp
Answer with the number, then the unit.

Recorded result, CC(C)NCC(O)COc1cccc2ccccc12 (stereo not shown) , Papp: 15 ×10⁻⁶ cm/s

###

Consider the following compounds; for each one, report its pIC50.
- Test system: OCI-AML3-PGP cell line
- TEST_NAME: Cell viability assay, OCI-AML3-PGP
- Format: cell-based
- Set-up: unit of the concentration uncertain
- MEASUREMENT_PARAMETERS: 168 h, valspodar (1 (unit uncertain)), 7 days, Table 10; read-out: IC50 OCI-AML3-PGP (Compound + valspodar)
- Description: A third set of experiments was conducted in the cell line OCI-AML3, which carries the W288Cfs*12 mutation in NPM protein. The P-gp expressing OCI-AML3 cell line (OCI-AML3-PGP) and the Luciferase expressing OC-AML3 cell line (OCI-AML3-Control) were established by lentivirally transducing P-gp ORF or Luciferase ORF. Cells were treated with Compound I or SNDX-5613 for 7 days to assess the IC50 values.
Kindly note that pIC50 refers to -log10 of the concentration in mol/L and answer with the value alone.

Tested on OCI-AML3-PGP cell line: CCN(C(=O)c1cc(F)ccc1Oc1cncnc1N1CC2(CCN(C[C@H]3CC[C@H](NS(=O)(=O)CC)CC3)CC2)C1)C(C)C . Observed pIC50: 7.50

So the reported pIC50 for CNc1nc(NC2CCN(Cc3ccc4c(cc(C#N)n4C[C@H](C)N4CCN(S(C)(=O)=O)CC4)c3C)CC2)c2cc(CC(F)(F)F)sc2n1 , on OCI-AML3-PGP cell line, turned out to be 7.80

###

- TESTED_TARGET: P-gp (Homo sapiens, UniProt P08183)
- TEST_NAME: P-gp substrate assessment using MDR1-MDCK monolayers (Example 1, +/- valspodar)
- Format: in vitro ADME
- Design: expressed in transfected cells; host or cells: MDR1-MDCK cells
- MEASUREMENT_PARAMETERS: dog, MDCK-MDR1, pH 7.4, B-to-A, without valspodar; read-out: Papp Avg
PROPERTY_NAME: Papp B→A at 120 min, 5 μM (×10⁻⁶ cm/s)
State just the number; it will be interpreted in ×10⁻⁶ cm/s.

The molecule listed as CNc1nc(NC2CCN(Cc3ccc4c(cc(C#N)n4C[C@H](C)N4CCN(S(C)(=O)=O)CC4)c3C)CC2)c2cc(CC(F)(F)F)sc2n1 has a reported Papp B→A at 120 min, 5 μM of 9.41
